test: basal CRE-LacZ reporter activity in PC12 – cell-based, unstimulated, primary screen (AID 1145); settings: no forskolin, luminescence, 4.5 h, higher = more signal, called active from +8 up or from −8 down
Threshold rule: z-score greater than or equal to 0.3 is Criterion met; below that, Criterion not met.

compound: CC(C)CNC(=O)[C@@]1(C)c2ccccc2C(=O)N(Cc2ccccc2)[C@H]1c1ccc(CO)cc1
group: Criterion met

compound: COC(=O)[C@@]1(Cc2ccc(OC)cc2)[C@H]2c3cc(C(=O)N(C)C)n(Cc4cc(C)n(C)n4)c3C[C@H]2CN1C(=O)c1ccccc1
group: Criterion not met

compound: O=C1N(CCS(=O)(=O)c2ccccc2)c2ccccc2[C@H]2OC(c3ccc(OCCCO)cc3)=N[C@@]12CCS(=O)(=O)c1ccccc1
group: Criterion met

compound: COc1ccc([Si](C)(C)[C@H]2[C@H](CCn3cc(CCO)nn3)O[C@@]3(C(=O)N(Cc4cccc(N5C(=O)c6cccc7cccc5c67)c4)c4ccccc43)[C@@H]2C)cc1
group: Criterion met

compound: O=[N+]([O-])c1ccc(C[n+]2ccc(-c3ccc(CO)cc3)cc2)o1
group: Criterion not met

compound: COCCOC(=O)N1C(=O)[C@@]2(c3cc(C#CC4(O)CCCCCC4)ccc31)[C@H](C(=O)NC[C@H](O)c1ccccc1)[C@H]1C(=O)O[C@H](c3ccccc3)[C@H](c3ccccc3)N1[C@@H]2c1ccc(OCCO)cc1
group: Criterion not met

compound: CCCNC(=O)[C@@H]1c2ccccc2C(=O)N(CC23CC4CC(CC(C4)C2)C3)[C@H]1c1ccc(CO)cc1
group: Criterion met

compound: O=C1O[C@@H](c2ccccc2)[C@@H](c2ccccc2)N2[C@@H](c3ccc(O)cc3)[C@]3(C(=O)Nc4ccc(C#CC5=CCCCC5)cc43)[C@@H](C(=O)Nc3nc4ccccc4s3)[C@H]12
group: Criterion not met

compound: COCCOC(=O)N1C(=O)[C@@]2(c3cc(C#Cc4ccc(OC)cc4)ccc31)[C@H](C(=O)N1CCc3cc(OC)c(OC)cc3C1)[C@H]1C(=O)O[C@H](c3ccccc3)[C@H](c3ccccc3)N1[C@@H]2c1ccc(OCCO)cc1
group: Criterion not met

compound: CN(C)C(=O)[C@@]1(CCC(=O)OC(C)(C)C)COC(c2ccc(OCCCO)cc2)=N1
group: Criterion not met

compound: COc1ccc([Si](C)(C)[C@@H]2[C@@H](CC(=O)N3Cc4ccccc4C[C@H]3CO)O[C@]3(C(=O)N(Cc4cccc(N5CCCCC5=O)c4)c4ccccc43)[C@H]2C)cc1
group: Criterion met

compound: CCC[C@@H]1C[C@@]1(CCC)[C@@H](NC(=O)c1ccco1)c1ccc(Cl)cc1
group: Criterion met

compound: O=C1N(CCS(=O)(=O)c2ccccc2)Cc2ccccc2C[C@@]12COC(c1ccc(OCCCO)cc1)=N2
group: Criterion not met

compound: O=C1O[C@H](c2ccccc2)[C@H](c2ccccc2)N2[C@H]1[C@@H](C(=O)N1CCCCCCC1)[C@]1(C(=O)Nc3ccccc31)[C@H]2c1ccc(O)cc1
group: Criterion not met

compound: COC(=O)[C@@]1(Cc2ccc(F)cc2)[C@@H]2[C@@H](CC(=O)[C@H]2CC(=O)C(=O)N2CCCC2)CN1C(=O)c1ccccc1
group: Criterion met

compound: COC(=O)c1c(CC[C@@H](CO)NC(=O)N[C@@H](C)Cn2cc(C3(O)CCCC3)nn2)oc(C(C)=O)c1C(=O)OC
group: Criterion met

compound: COC(=O)[C@@]1(Cc2ccccc2)[C@H]2c3cc(C(=O)N(C)C)n(Cc4ccc(O)c(OC)c4)c3C[C@H]2CN1C(=O)c1ccccc1
group: Criterion not met

compound: CC(C)c1ccc(NN2C(C(O)c3cccs3)C=CC3C(=O)N(c4ccccc4)C(=O)C32)cc1 (stereo unspecified)
group: Criterion met

compound: Cc1ccccc1C(O)C1C=CC2C(=O)N(C)C(=O)C2N1Nc1ccc([N+](=O)[O-])cc1[N+](=O)[O-] (stereo unspecified)
group: Criterion met

compound: C=CCOC(=O)[C@H]1[C@@H]2C(=O)O[C@@H](c3ccccc3)[C@@H](c3ccccc3)N2[C@@H](c2ccc(OCCOC(=O)[C@H]3C[C@H]4C(=O)N[C@@H](CCCCN(C)C)C(=O)N4[C@H]3c3ccc(O)cc3)cc2)[C@]12C(=O)Nc1ccccc12
group: Criterion not met

compound: COc1ccc(C(=O)Nc2ccc(CN3C(=O)[C@@]4(O[C@@H](CC(=O)N5Cc6ccccc6C[C@H]5CO)[C@H]([Si](C)(C)c5ccc(OC)cc5)[C@H]4C)c4ccccc43)cc2)cc1
group: Criterion met

compound: C#CCNS(=O)(=O)N(C)C
group: Criterion not met

compound: [N-]=[N+]=Nc1ccccc1[C@@H]1OC(c2ccc(OCCCO)cc2)=N[C@]1(CCS(=O)(=O)c1ccccc1)C(=O)NCc1ccccc1
group: Criterion not met

compound: COc1ccc(C(=O)Nc2ccc3c(c2)[C@]2(O[C@@H](CCO)[C@H]([Si](C)(C)c4ccc(OC)cc4)[C@H]2C)C(=O)N3Cc2ccccc2)cc1
group: Criterion met

compound: COc1ccc(C#Cc2ccc3c(c2)[C@]2(C(=O)N3)[C@H](C(=O)O)[C@H]3C(=O)O[C@H](c4ccccc4)[C@H](c4ccccc4)N3[C@@H]2c2ccc(OCCO)cc2)cc1
group: Criterion not met

compound: COc1cccc(C)c1NC(=O)O[C@H]1[C@H](OC(=O)Nc2ccccc2)[C@H](OC(=O)Nc2ccccc2)[C@@H](OC)O[C@@H]1CO
group: Criterion met
